- Tested on: THP-1 viability, CellTiter-Glo luminescence, 72 h
- Method description: PubChem AID 2252
pEC50: −log10 of the molar value.
Field: pEC50. Provide a value for each of the compounds that follow.

Example compounds with recorded pEC50:
{"Compound structure": "Oc1c(Cl)cc(CN2CCCCC2)c2cccnc12", "Tested target": "THP-1 viability, CellTiter-Glo luminescence, 72 h", "pEC50": 6.15}
{"Compound structure": "O=C(Oc1c(Cl)cc(Cl)c2cccnc12)c1ccco1", "Tested target": "THP-1 viability, CellTiter-Glo luminescence, 72 h", "pEC50": 4.93}

The following compounds each have a reported value; give each one's pEC50.
1. CCCCCCCCCCCCCCCC[n+]1ccc(C(N)=O)cc1
2. CC1(C)N=C(N)NC(Nc2ccc(Br)cc2)=N1
3. C=C(C)COc1ccc2c(C)c(CCC(=O)NC3CC3)c(=O)oc2c1
4. CCN(CC)c1cc(C)c2cc(NC(=O)c3ccccc3F)ccc2n1

6.17
5.15
> 7.00
5.05

---

- Tested on: THP-1 viability, CellTiter-Glo luminescence, 72 h
- Method description: PubChem AID 2252
Measurement label: EC50

{"Compound": "Fc1ccc([C@@H]2CCNC[C@H]2COc2ccc3c(c2)OCO3)cc1", "Tested target": "THP-1 viability, CellTiter-Glo luminescence, 72 h", "EC50": "7.59 µM"}

The following compounds each have a reported value; give each one's EC50.
1. Cc1c(Cl)cccc1Nc1nc(NCCO)c2ccccc2n1
2. OCCNCc1cc(Br)ccc1OCc1ccc(Cl)cc1
3. O=C(C[n+]1cc(-c2ccc(Cl)cc2)n2c1CCC2)N1c2ccccc2Sc2ccccc21
4. COc1ccc(C(=O)NC(=S)NNC(=O)c2cnccn2)cc1OC
5. Cc1cccc(C(=O)NNC(=S)NC(=O)c2cccs2)c1
6. C/C(Cn1nnc([N+](=O)[O-])n1)=N\NC(=O)c1ccccc1
7. Clc1ccc2c(c1)c1cc(Cl)ccc1n2CN1CCOCC1
8. CCN(CC)c1ccc(CNc2nc3ccccc3n2CCN2CCCCC2)cc1

["10.1 µM", "15.9 µM", "15.4 µM", "6.82 µM", "14.6 µM", "40 µM", "27.2 µM", "16.5 µM"]

---

- System: THP-1 viability, CellTiter-Glo luminescence, 72 h
- Method description: PubChem AID 2252
pEC50: −log10 of the molar value.
Measurement label: pEC50

{"Molecule": "COc1ccc(NC(=O)CN(C)S(=O)(=O)c2ccc(Cl)cc2)cc1Cl", "pEC50": "> 7.00"}

The following molecules each have a reported value; give each one's pEC50.
1. Oc1cc(Cl)ccc1Oc1ccc(Cl)cc1Cl
2. O=C(Nc1ccc(Cl)cc1)N1CCCN(Cc2ccccc2F)C1
3. Cc1ccc(-n2[nH]c(C)c(C=NCc3ccncc3)c2=O)cc1
4. O=C(C[n+]1cnn(CC(=O)c2ccc(Cl)cc2Cl)c1)c1ccc([N+](=O)[O-])cc1

[4.54, 4.34, 4.50, 4.58]

---

- Tested on: THP-1 viability, CellTiter-Glo luminescence, 72 h
- Method description: PubChem AID 2252
pEC50: −log10 of the molar value.
Measurement label: pEC50

Example compounds with recorded pEC50:
{"Compound": "Cc1cccc(NC2=NC3(CCCCC3)N=C(N)N2)c1", "pEC50": 4.47}
{"Compound": "CCN(CC)C(=S)SSC(=S)N(CC)CC", "pEC50": 4.66}

The following compounds each have a reported value; give each one's pEC50.
1. CSc1ccc2c(c1)C(N1CCN(C)CC1)Cc1ccccc1S2 (centres undefined)
2. c1cc2c(cc1C1CCCCC1)c1c3n2CCN=C3CCC1
3. O=C(N/N=C/c1ccccc1O)c1ccncc1
4. CCN(CCCNC(=O)c1cn(CC)c2ccc(S(=O)(=O)N(C)C)cc2c1=O)c1cccc(C)c1
5. C#CCOCCOCCOCCNc1nc(N2CCN(C(=O)CCCCCCCCCCNC(=O)[C@H](CO)n3cc(CCCSC)nn3)CC2)nc(N2CCN(C(=O)CCCCCCCCCCNC(=O)[C@H](CCCN=C(N)N)n3cc(C[C@@H](C)CC)nn3)CC2)n1

[5.03, 4.92, 4.82, 4.46, 5.05]

---

- Test system: THP-1 viability, CellTiter-Glo luminescence, 72 h
- Method description: PubChem AID 2252
Field: EC50. Provide a value for each of the compounds that follow.

Example compounds with recorded EC50:
{"Compound": "CN1CCN(/N=C/c2c3ccccc3c(Cl)c3ccccc23)CC1", "EC50": "13.1 µM"}
{"Compound": "COc1cccc(Nc2cc(C)nc3ccccc23)c1", "EC50": "30.5 µM"}
{"Compound": "c1ccc(CN2CCN(c3nc(NCc4ccco4)c4ccccc4n3)CC2)cc1", "EC50": "15.3 µM"}

The following compounds each have a reported value; give each one's EC50.
1. CCCN(C(=O)CSc1nc2ccccc2n1CC)C1CCS(=O)(=O)C1 (configuration not stated)
2. O=C(CCN1CCN(c2ccccc2)CC1)c1ccc(Br)cc1
3. CSc1nnc(-c2cccc(NC(=S)NN)c2)o1
4. COc1ccc(CSCCN)cc1Cl

1. 14.8 µM
2. 38.2 µM
3. < 0.1 µM
4. 44.9 µM

---

Field: pEC50. Provide a value for each of the compounds that follow.
- Tested on: THP-1 viability, CellTiter-Glo luminescence, 72 h
- Method description: PubChem AID 2252
pEC50: −log10 of the molar value.

Example compounds with recorded pEC50:
{"Compound": "COc1ccc(N2C3=C(CC4=C2CC(C)(C)CC4=O)C(=O)CC(C)(C)C3)cc1", "Tested target": "THP-1 viability, CellTiter-Glo luminescence, 72 h", "pEC50": 5.12}
{"Compound": "c1ccc2cc3c(NCCN4CCOCC4)ccnc3cc2c1", "Tested target": "THP-1 viability, CellTiter-Glo luminescence, 72 h", "pEC50": 5.43}
{"Compound": "O=C(Nc1ccc([N+](=O)[O-])cc1Cl)c1cc(Cl)ccc1O", "Tested target": "THP-1 viability, CellTiter-Glo luminescence, 72 h", "pEC50": 5.71}
{"Compound": "CCCCCCOC(=O)C[N+](C)(C)CCOC1CC2CCC1(C)C2(C)C (stereo unspecified)", "Tested target": "THP-1 viability, CellTiter-Glo luminescence, 72 h", "pEC50": 5.68}
{"Compound": "O=c1ccc2cc3c([nH]c4ccc(Br)cc43)oc-2c1O", "Tested target": "THP-1 viability, CellTiter-Glo luminescence, 72 h", "pEC50": 4.72}

The following compounds each have a reported value; give each one's pEC50.
1. O=C(O)CC/C(=C\c1ccccc1[N+](=O)[O-])c1nc2ccccc2s1
2. O=C(/C=C/c1ccco1)NC(=S)NNC(=O)c1ccco1
3. OC(CN1CCCCC1)Cn1c2ccccc2c2cc(Br)ccc21 (stereo unspecified)
4. CCCOc1ccc(C(=O)NNC(=S)NC(=O)CC)cc1
5. Fc1ccc(Nc2nnc(C(F)(F)F)s2)cc1Cl
6. Cc1[nH]cnc1C(=O)N/N=C/c1ccc([N+](=O)[O-])s1

["> 7.00", 4.49, 4.76, 5.55, 4.73, 4.88]

---

- Tested on: THP-1 viability, CellTiter-Glo luminescence, 72 h
- Method description: PubChem AID 2252
pEC50: −log10 of the molar value.
Measurement label: pEC50

Example compounds with recorded pEC50:
{"Compound": "CC1CCCC(NC(=O)COC(=O)CCSc2ccccc2)C1C (stereo unspecified)", "pEC50": "> 7.00"}
{"Compound": "S=C(NCc1ccc(Cl)cc1)Nc1ccncc1", "pEC50": 4.40}
{"Compound": "CCN(CCNCC(O)COc1ccccc1C(C)C)c1cccc(C)c1 (stereo unspecified)", "pEC50": 4.96}

The following compounds each have a reported value; give each one's pEC50.
1. Cc1nnc(N/N=C/c2ccccn2)[nH]c1=O
2. Cc1cc(C2CCCCC2)n(O)c(=O)c1
3. CCN1CCN(CCNC(=O)c2ccc(/C=C3/Sc4ccccc4N(Cc4cccc(C)c4)C3=O)cc2)CC1
4. COc1nccnc1NS(=O)(=O)c1ccc(N=Cc2c(C)[nH]n(-c3ccc(C)c(C)c3)c2=O)cc1
5. c1ccc2c(c1)nc(N1CCOCC1)c1c3ccccc3[nH]c21
6. Oc1c(I)cc(Cl)c2cccnc12
7. Cc1ccc(OCC(O)Cn2c(=N)n(CCN3CCCCC3)c3ccccc32)cc1 (stereo unspecified)

1: 5.79; 2: 6.20; 3: 5.09; 4: 4.84; 5: > 7.00; 6: 4.83; 7: 5.27

Using the record for "COc1ccc(CNCCc2c[nH]c3ccccc23)c(OC)c1C" , report its pEC50.
5.07
